Origin of the recorded values: paper PMC8659250

assay: Solubility of AQ2CA without cyclodextrins (UV-Vis); format: physicochemical; conditions: 25 °C, aqueous buffer, thermodynamic from solid; Britton–Robinson buffer pH 7.4, without CDs; read-out: Solubility of AQ2CA in Britton–Robinson buffer, pH 7.4
Measured Quantity: solubility at 24 h

*Q* Looking for the measured solubility at 24 h of O=C(O)c1ccc2c(c1)C(=O)c1ccccc1C2=O [AQ2CA] , can you help?
*A* 1740 µM

---

Test: Solubility of AQ2CA without cyclodextrins (UV-Vis)
Format: physicochemical
Conditions: thermodynamic from solid; water, without CDs, 25 °C; read-out: Solubility of AQ2CA in water
Source text: Anthraquinone-2-carboxylic acid (AQ2CA) is a poorly water-soluble drug (SAQ2CA in water = 3.98 × 10^−5 M). […] An improvement in the aqueous solubility of AQ2CA would improve the biological availability of the drug. Such a drug solubilization effect was achieved via complexation using appropriate CD derivatives. The phase solubility method developed by Higuchi and Connors was employed to quantify the solubilization ability of cyclodextrins. […]
Measured Quantity: solubility at 24 h (µM)
State just the number; it will be interpreted in µM.

*Q* Looking for the measured solubility at 24 h of "O=C(O)c1ccc2c(c1)C(=O)c1ccccc1C2=O" , can you help?
*A* 39.8

---

experiment: Solubility of AQ2CA without cyclodextrins (UV-Vis); format: physicochemical; details: 25 °C, aqueous buffer, thermodynamic from solid; Britton–Robinson buffer pH 7.4; read-out: Solubility in Britton–Robinson buffer, pH 7.4 without CDs
Measured Quantity: solubility at 24 h (µg/mL)
State just the number; it will be interpreted in µg/mL.

*Q* Looking for the measured solubility at 24 h of "O=C(O)c1ccc2c(c1)C(=O)c1ccccc1C2=O" , can you help?
*A* 440

---

assay: Solubility of AQ2CA without cyclodextrins (UV-Vis); type: physicochemical; conditions: water, 25 °C, water, thermodynamic from solid; read-out: Solubility in water without CDs
Measured Quantity: solubility at 24 h (µg/mL)
State just the number; it will be interpreted in µg/mL.

*Q* Looking for the measured solubility at 24 h of O=C(O)c1ccc2c(c1)C(=O)c1ccccc1C2=O [AQ2CA] , can you help?
*A* 10

---

test: Solubility of AQ2CA without cyclodextrins (UV-Vis); type: physicochemical; conditions: 25 °C, aqueous buffer, thermodynamic from solid; Britton–Robinson buffer pH 3.0, without CDs; read-out: Solubility of AQ2CA in Britton–Robinson buffer, pH 3.0
Measured Quantity: solubility at 24 h
In your response, the unit should come after the numeric value.

*Q* Looking for the measured solubility at 24 h of "O=C(O)c1ccc2c(c1)C(=O)c1ccccc1C2=O" , can you help?
*A* 1.43 µM

---

assay: Solubility of AQ2CA without cyclodextrins (UV-Vis); type: physicochemical; settings: 25 °C, aqueous buffer, thermodynamic from solid; Britton–Robinson buffer pH 3.0; read-out: Solubility in Britton–Robinson buffer, pH 3.0 without CDs
Measured Quantity: solubility at 24 h (µg/mL)
State just the number; it will be interpreted in µg/mL.

*Q* Looking for the measured solubility at 24 h of "O=C(O)c1ccc2c(c1)C(=O)c1ccccc1C2=O" , can you help?
*A* 0.36

---

experiment: Phase solubility diagrams (Higuchi and Connors) of AQ2CA with cyclodextrins; type: physicochemical; conditions: water; phase solubility diagram, 25 °C
Measured Quantity: K1:1 (association constant, AQ2CA–cyclodextrin) (M⁻¹)
State just the number; it will be interpreted in M⁻¹.

{"columns": ["Molecule", "Unit Name", "Measured Number"],
 "data": [
  ["NC[C@H]1O[C@@H]2O[C@H]3[C@H](O)[C@@H](O)[C@@H](O[C@H]4[C@H](O)[C@@H](O)[C@@H](O[C@H]5[C@H](O)[C@@H](O)[C@@H](O[C@H]6[C@H](O)[C@@H](O)[C@@H](O[C@H]7[C@H](O)[C@@H](O)[C@@H](O[C@H]8[C@H](O)[C@@H](O)[C@@H](O[C@H]1[C@H](O)[C@H]2O)O[C@@H]8CO)O[C@@H]7CO)O[C@@H]6CO)O[C@@H]5CO)O[C@@H]4CO)O[C@@H]3CO [βCDamine]", "M⁻¹", 280],
  ["O=C(N[C@H]1C(O)O[C@H](CO)[C@H](O)[C@@H]1O)OCc1cn(C[C@H]2O[C@@H]3O[C@H]4[C@H](O)[C@@H](O)[C@@H](O[C@H]5[C@H](O)[C@@H](O)[C@@H](O[C@H]6[C@H](O)[C@@H](O)[C@@H](O[C@H]7[C@H](O)[C@@H](O)[C@@H](O[C@H]8[C@H](O)[C@@H](O)[C@@H](O[C@H]9[C@H](O)[C@@H](O)[C@@H](O[C@H]2[C@H](O)[C@H]3O)O[C@@H]9CO)O[C@@H]8CO)O[C@@H]7CO)O[C@@H]6CO)O[C@@H]5CO)O[C@@H]4CO)nn1 (stereo partly shown) [βCDGAL]", "M⁻¹", 840],
  ["OC[C@H]1O[C@@H]2O[C@H]3[C@H](O)[C@@H](O)[C@@H](O[C@H]4[C@H](O)[C@@H](O)[C@@H](O[C@H]5[C@H](O)[C@@H](O)[C@@H](O[C@H]6[C@H](O)[C@@H](O)[C@@H](O[C@H]7[C@H](O)[C@@H](O)[C@@H](O[C@H]8[C@H](O)[C@@H](O)[C@@H](O[C@H]1[C@H](O)[C@H]2O)O[C@@H]8CO)O[C@@H]7CO)O[C@@H]6CO)O[C@@H]5CO)O[C@@H]4CO)O[C@@H]3CO [βCD, β-Cyclodextrin]", "M⁻¹", 460]
]}

Pending molecule:
*Q* Looking for the measured K1:1 (association constant, AQ2CA–cyclodextrin) of O=C(CCCCC1CCSS1)OCc1cn(C[C@H]2O[C@@H]3O[C@H]4[C@H](O)[C@@H](O)[C@@H](O[C@H]5[C@H](O)[C@@H](O)[C@@H](O[C@H]6[C@H](O)[C@@H](O)[C@@H](O[C@H]7[C@H](O)[C@@H](O)[C@@H](O[C@H]8[C@H](O)[C@@H](O)[C@@H](O[C@H]9[C@H](O)[C@@H](O)[C@@H](O[C@H]2[C@H](O)[C@H]3O)O[C@@H]9CO)O[C@@H]8CO)O[C@@H]7CO)O[C@@H]6CO)O[C@@H]5CO)O[C@@H]4CO)nn1 (stereo partly shown) [βCDLip] , can you help?
*A* 800

---

Listing: K1:1 (association constant, AQ2CA–cyclodextrin) of selected compounds
assay: Phase solubility diagrams (Higuchi and Connors) of AQ2CA with cyclodextrins; type: physicochemical; settings: Britton–Robinson buffer pH 3.0; phase solubility diagram, 25 °C
State just the number; it will be interpreted in M⁻¹.

Example entries and their recorded answers appear below.
{"columns": ["Compound", "Measured Number"],
 "data": [
  ["NC[C@H]1O[C@@H]2O[C@H]3[C@H](O)[C@@H](O)[C@@H](O[C@H]4[C@H](O)[C@@H](O)[C@@H](O[C@H]5[C@H](O)[C@@H](O)[C@@H](O[C@H]6[C@H](O)[C@@H](O)[C@@H](O[C@H]7[C@H](O)[C@@H](O)[C@@H](O[C@H]8[C@H](O)[C@@H](O)[C@@H](O[C@H]1[C@H](O)[C@H]2O)O[C@@H]8CO)O[C@@H]7CO)O[C@@H]6CO)O[C@@H]5CO)O[C@@H]4CO)O[C@@H]3CO [βCDamine]", 2450],
  ["O=C(CCCCC1CCSS1)OCc1cn(C[C@H]2O[C@@H]3O[C@H]4[C@H](O)[C@@H](O)[C@@H](O[C@H]5[C@H](O)[C@@H](O)[C@@H](O[C@H]6[C@H](O)[C@@H](O)[C@@H](O[C@H]7[C@H](O)[C@@H](O)[C@@H](O[C@H]8[C@H](O)[C@@H](O)[C@@H](O[C@H]9[C@H](O)[C@@H](O)[C@@H](O[C@H]2[C@H](O)[C@H]3O)O[C@@H]9CO)O[C@@H]8CO)O[C@@H]7CO)O[C@@H]6CO)O[C@@H]5CO)O[C@@H]4CO)nn1 (stereo partly shown) [βCDLip]", 2520],
  ["O=C(N[C@H]1C(O)O[C@H](CO)[C@H](O)[C@@H]1O)OCc1cn(C[C@H]2O[C@@H]3O[C@H]4[C@H](O)[C@@H](O)[C@@H](O[C@H]5[C@H](O)[C@@H](O)[C@@H](O[C@H]6[C@H](O)[C@@H](O)[C@@H](O[C@H]7[C@H](O)[C@@H](O)[C@@H](O[C@H]8[C@H](O)[C@@H](O)[C@@H](O[C@H]9[C@H](O)[C@@H](O)[C@@H](O[C@H]2[C@H](O)[C@H]3O)O[C@@H]9CO)O[C@@H]8CO)O[C@@H]7CO)O[C@@H]6CO)O[C@@H]5CO)O[C@@H]4CO)nn1 (stereo partly shown) [βCDGAL]", 2760]
]}

Pending compound:
*Q* Looking for the measured K1:1 (association constant, AQ2CA–cyclodextrin) of OC[C@H]1O[C@@H]2O[C@H]3[C@H](O)[C@@H](O)[C@@H](O[C@H]4[C@H](O)[C@@H](O)[C@@H](O[C@H]5[C@H](O)[C@@H](O)[C@@H](O[C@H]6[C@H](O)[C@@H](O)[C@@H](O[C@H]7[C@H](O)[C@@H](O)[C@@H](O[C@H]8[C@H](O)[C@@H](O)[C@@H](O[C@H]1[C@H](O)[C@H]2O)O[C@@H]8CO)O[C@@H]7CO)O[C@@H]6CO)O[C@@H]5CO)O[C@@H]4CO)O[C@@H]3CO [βCD, β-Cyclodextrin] , can you help?
*A* 1480
